# System Name: Protein kinase C delta type (Homo sapiens)
# Sequence (Q05655 whole entry): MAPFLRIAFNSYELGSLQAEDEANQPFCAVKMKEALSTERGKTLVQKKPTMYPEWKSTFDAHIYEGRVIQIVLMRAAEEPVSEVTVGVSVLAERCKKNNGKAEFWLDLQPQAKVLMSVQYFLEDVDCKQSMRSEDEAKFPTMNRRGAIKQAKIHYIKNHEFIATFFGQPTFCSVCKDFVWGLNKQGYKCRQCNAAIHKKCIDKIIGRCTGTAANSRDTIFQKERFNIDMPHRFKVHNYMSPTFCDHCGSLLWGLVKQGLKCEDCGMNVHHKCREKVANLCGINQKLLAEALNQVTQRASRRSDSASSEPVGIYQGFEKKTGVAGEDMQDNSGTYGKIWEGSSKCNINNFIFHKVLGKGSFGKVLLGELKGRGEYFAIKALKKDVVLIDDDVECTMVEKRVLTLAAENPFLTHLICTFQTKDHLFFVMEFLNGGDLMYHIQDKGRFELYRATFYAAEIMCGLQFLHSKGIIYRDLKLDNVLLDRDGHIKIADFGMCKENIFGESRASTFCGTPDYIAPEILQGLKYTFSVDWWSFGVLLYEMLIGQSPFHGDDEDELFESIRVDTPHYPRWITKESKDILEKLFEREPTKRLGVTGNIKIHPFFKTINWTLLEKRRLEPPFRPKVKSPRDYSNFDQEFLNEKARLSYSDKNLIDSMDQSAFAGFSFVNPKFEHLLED
# Method Description: Inhibition of Protein kinase C delta
Measured Metric: IC50 (nM)

CN(C)CCCn1nc(C2=C(c3cn(-c4ccc5ccccc5c4)c4ccccc34)C(=O)NC2=O)c2ccccc21 = 490

a: CN(C)CCCn1nc(C2=C(c3cn(-c4cccnc4)c4ccccc34)C(=O)NC2=O)c2ccccc21
b: CN(C)CCCn1nc(C2=C(c3cn(-c4csc5ccccc45)c4ccccc34)C(=O)NC2=O)c2ccccc21
c: CN(C)CCCn1nc(C2=C(c3cn(-c4cccc5ccccc45)c4ccccc34)C(=O)NC2=O)c2ccccc21
d: CN(C)CCCn1nc(C2=C(c3cn(-c4cccs4)c4ccccc34)C(=O)NC2=O)c2ccccc21
e: CN(C)CCCn1nc(C2=C(c3cn(-c4cnc5ccccc5c4)c4ccccc34)C(=O)NC2=O)c2ccccc21
Query: Let's sort these by IC50, smallest first. Go ahead? Give me the labels in the order the question wants.
Response: e, d, a, b, c

* * *

# System Name: Protein kinase C beta type (Homo sapiens)
# Method Description: Inhibition of IL-8 release by HEK293 cells expressing PKC-beta2
# Format: functional, cell-based
Measured Metric: IC50 (nM)

CN(C)CCCn1nc(C2=C(c3cn(-c4cccc5ccccc45)c4ccccc34)C(=O)NC2=O)c2ccccc21 = 600
CN(C)CCCn1nc(C2=C(c3cn(-c4cccs4)c4ccccc34)C(=O)NC2=O)c2ccccc21 = 75
CN(C)CCCn1nc(C2=C(c3cn(-c4csc5ccccc45)c4ccccc34)C(=O)NC2=O)c2ccccc21 = 630

P: CN(C)CCCn1nc(C2=C(c3cn(-c4ccc5ccccc5c4)c4ccccc34)C(=O)NC2=O)c2ccccc21
Q: CN(C)CCCn1nc(C2=C(c3cn(-c4cccnc4)c4ccccc34)C(=O)NC2=O)c2ccccc21
R: O=C1NC(=O)C(c2nn(CCCN3CCCC3)c3ccccc23)=C1c1cn(-c2ccc3ccccc3c2)c2ccccc12
Query: Ranking field: IC50; order: falling. Give me the labels in the order the question wants.
Response: R, Q, P

* * *

# System Name: Protein kinase C beta type (Homo sapiens, UniProt P05771)
# Sequence (P05771 whole entry): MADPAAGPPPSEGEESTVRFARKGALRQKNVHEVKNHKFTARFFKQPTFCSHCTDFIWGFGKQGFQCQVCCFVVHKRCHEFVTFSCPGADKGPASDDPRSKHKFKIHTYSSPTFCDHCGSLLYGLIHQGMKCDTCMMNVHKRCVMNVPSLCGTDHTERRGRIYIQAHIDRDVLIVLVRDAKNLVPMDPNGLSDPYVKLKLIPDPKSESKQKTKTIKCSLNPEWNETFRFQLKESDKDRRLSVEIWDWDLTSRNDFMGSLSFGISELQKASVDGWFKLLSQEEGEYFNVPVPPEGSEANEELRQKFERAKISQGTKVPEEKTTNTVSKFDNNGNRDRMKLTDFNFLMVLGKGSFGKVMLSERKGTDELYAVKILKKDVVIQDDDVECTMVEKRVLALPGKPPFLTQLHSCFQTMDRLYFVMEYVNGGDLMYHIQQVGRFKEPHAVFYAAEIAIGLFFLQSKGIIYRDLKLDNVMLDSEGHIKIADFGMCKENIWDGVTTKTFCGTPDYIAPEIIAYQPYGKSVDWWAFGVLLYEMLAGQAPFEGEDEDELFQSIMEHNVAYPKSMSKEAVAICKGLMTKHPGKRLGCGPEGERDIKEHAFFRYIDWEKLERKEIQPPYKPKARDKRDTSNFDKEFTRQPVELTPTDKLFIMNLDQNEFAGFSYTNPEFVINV
# Method Description: Inhibition of human Protein kinase C beta 2 using [gamma-33P]-ATP
Measured Metric: IC50 (µM)

O=C1NC(=O)C(c2cn(-c3cccnc3)c3ccccc23)=C1c1[nH]nc2ccccc12 = 0.22
CN(C)CCCn1nc(C2=C(c3cn(-c4ccccc4)c4ccccc34)C(=O)NC2=O)c2ccccc21 = 0.013

A: CN(C)CCCn1nc(C2=C(c3cn(-c4cccs4)c4ccccc34)C(=O)NC2=O)c2ccccc21
B: CN1CCN(CCCn2nc(C3=C(c4cn(-c5ccc6ccccc6c5)c5ccccc45)C(=O)NC3=O)c3ccccc32)CC1
Query: // select label with min value of measured IC50 from [ A , B ] To answer, give the label that identifies your chosen option.
Response: A

* * *

The following compounds are shown together with reported pKi values.
# System Name: Voltage-gated inwardly rectifying potassium channel KCNH2 (Homo sapiens, UniProt Q12809)
# Sequence (Q12809 whole entry): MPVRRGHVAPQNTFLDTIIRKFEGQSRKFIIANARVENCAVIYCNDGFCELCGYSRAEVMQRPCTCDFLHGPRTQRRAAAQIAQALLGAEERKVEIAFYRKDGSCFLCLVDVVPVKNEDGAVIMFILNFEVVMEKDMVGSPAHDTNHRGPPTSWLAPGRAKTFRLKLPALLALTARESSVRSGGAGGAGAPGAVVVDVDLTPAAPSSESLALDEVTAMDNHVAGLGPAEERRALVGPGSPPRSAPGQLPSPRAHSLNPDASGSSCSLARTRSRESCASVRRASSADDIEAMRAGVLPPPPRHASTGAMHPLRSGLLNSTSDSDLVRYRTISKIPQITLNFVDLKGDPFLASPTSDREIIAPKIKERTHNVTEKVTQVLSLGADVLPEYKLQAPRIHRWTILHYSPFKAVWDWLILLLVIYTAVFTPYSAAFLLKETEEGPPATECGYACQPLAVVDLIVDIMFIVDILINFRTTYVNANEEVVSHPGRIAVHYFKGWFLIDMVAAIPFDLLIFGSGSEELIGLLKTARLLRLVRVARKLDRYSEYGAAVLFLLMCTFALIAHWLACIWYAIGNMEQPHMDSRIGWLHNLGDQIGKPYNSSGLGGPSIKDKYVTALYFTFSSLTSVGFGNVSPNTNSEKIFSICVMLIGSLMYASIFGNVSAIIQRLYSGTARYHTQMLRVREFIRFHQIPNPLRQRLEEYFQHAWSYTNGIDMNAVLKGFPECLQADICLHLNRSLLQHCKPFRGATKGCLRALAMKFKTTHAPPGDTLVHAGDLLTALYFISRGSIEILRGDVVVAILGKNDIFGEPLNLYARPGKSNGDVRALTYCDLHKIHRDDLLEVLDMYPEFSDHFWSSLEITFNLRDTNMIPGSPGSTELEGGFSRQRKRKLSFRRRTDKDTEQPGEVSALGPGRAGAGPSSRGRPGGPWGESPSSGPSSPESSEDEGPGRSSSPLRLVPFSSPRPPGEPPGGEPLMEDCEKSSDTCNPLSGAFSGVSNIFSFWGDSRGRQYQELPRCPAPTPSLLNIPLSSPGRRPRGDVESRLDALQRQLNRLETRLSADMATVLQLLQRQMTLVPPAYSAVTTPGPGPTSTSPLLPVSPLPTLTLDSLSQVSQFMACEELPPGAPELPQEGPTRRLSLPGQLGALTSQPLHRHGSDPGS
Recall that pKi is obtained by taking minus log10 of the concentration measured in molar.

O=C1NC(=O)C(c2nn(CCCN3CCOCC3)c3ccccc23)=C1c1cn(-c2ccc3ccccc3c2)c2ccccc12 = 6.07
O=C1NC(=O)C(c2nn(CCCN3CCCC3)c3ccccc23)=C1c1cn(-c2ccc3ccccc3c2)c2ccccc12 = 7.96

With Voltage-gated inwardly rectifying potassium channel KCNH2 (Homo sapiens, UniProt Q12809) as the test system, CN1CCN(CCCn2nc(C3=C(c4cn(-c5ccc6ccccc6c5)c5ccccc45)C(=O)NC3=O)c3ccccc32)CC1 showed pKi of 6.54

* * *

# System Name: Protein kinase C alpha type (Homo sapiens)
Measured Metric: IC50 (nM)
Write the value in nM as a bare number.

With Protein kinase C alpha type (Homo sapiens) as the test system, CN1CCN(CCCn2nc(C3=C(c4cn(-c5ccc6ccccc6c5)c5ccccc45)C(=O)NC3=O)c3ccccc32)CC1 showed IC50 of 320

* * *

# System Name: UniProt:P05771
# Method Description: Inhibition of human Protein kinase C beta 1 using [gamma-33P]-ATP
pIC50: −log10 of the molar value.
Measured Metric: pIC50

Here is how some compounds turned out for pIC50.
CN1CCN(CCCn2nc(C3=C(c4cn(-c5ccc6ccccc6c5)c5ccccc45)C(=O)NC3=O)c3ccccc32)CC1 = 7.21
O=C1NC(=O)C(c2nn(CCCN3CCCC3)c3ccccc23)=C1c1cn(-c2ccc3ccccc3c2)c2ccccc12 = 6.92

I: CN(C)CCCn1nc(C2=C(c3cn(-c4csc5ccccc45)c4ccccc34)C(=O)NC2=O)c2ccccc21
II: CN(C)CCCn1nc(C2=C(c3cn(-c4cccs4)c4ccccc34)C(=O)NC2=O)c2ccccc21
Query: When I and II are compared, which has the higher number for pIC50? To answer, give the label that identifies your chosen option.
Response: II
(II: 7.82, I: 7.07)

* * *

# Method Description: Inhibition of Protein kinase C epsilon
Measured Metric: IC50 (nM)

Here is how some compounds turned out for IC50.
CN(C)CCCn1nc(C2=C(c3cn(-c4cccc5ccccc45)c4ccccc34)C(=O)NC2=O)c2ccccc21 = 4200
CN(C)CCCn1nc(C2=C(c3cn(-c4cccs4)c4ccccc34)C(=O)NC2=O)c2ccccc21 = 140
CN(C)CCCn1nc(C2=C(c3cn(-c4ccc5ccccc5c4)c4ccccc34)C(=O)NC2=O)c2ccccc21 = 330

a: CN(C)CCCn1nc(C2=C(c3cn(-c4csc5ccccc45)c4ccccc34)C(=O)NC2=O)c2ccccc21
b: CN(C)CCCn1nc(C2=C(c3cn(-c4cnc5ccccc5c4)c4ccccc34)C(=O)NC2=O)c2ccccc21
c: CN(C)CCCn1nc(C2=C(c3cn(-c4cccnc4)c4ccccc34)C(=O)NC2=O)c2ccccc21
Query: Ranking field: IC50; order: falling. Give me the labels in the order the question wants.
Response: a, c, b
(a: 3100 nM, c: 330 nM, b: 140 nM)

* * *

# System Name: Platelet-derived growth factor receptor (Mus musculus, UniProt P05622+P26618)
# Method Description: Inhibition of Platelet-derived growth factor receptor in P19 cells
pIC50: −log10 of the molar value.
Measured Metric: pIC50

CN[C@@H]1C[C@H]2O[C@@](C)([C@@H]1OC)n1c3ccccc3c3c4c(c5c6ccccc6n2c5c31)C(=O)NC4 [STAUROSPORINE] = 8.70
CN(C)CCCn1nc(C2=C(c3cn(-c4cnc5ccccc5c4)c4ccccc34)C(=O)NC2=O)c2ccccc21 = 5.23
CN(C)CCCn1nc(C2=C(c3cn(-c4ccc5ccccc5c4)c4ccccc34)C(=O)NC2=O)c2ccccc21 = 5.23

a: CN(C)CCCn1nc(C2=C(c3cn(-c4cccnc4)c4ccccc34)C(=O)NC2=O)c2ccccc21
b: CN(C)CCCn1nc(C2=C(c3cn(-c4cccs4)c4ccccc34)C(=O)NC2=O)c2ccccc21
Query: When a and b are compared, which has the higher number for pIC50? To answer, give the label that identifies your chosen option.
Response: b

* * *

# System Name: Protein kinase C beta type (Homo sapiens, UniProt P05771)
# Method Description: Inhibition of IL-8 release by HEK293 cells expressing PKC-beta2
# Type: functional, cell-based
pIC50: −log10 of the molar value.
Measured Metric: pIC50

CN(C)CCCn1nc(C2=C(c3cn(-c4cncc5ccccc45)c4ccccc34)C(=O)NC2=O)c2ccccc21 = 7.07

I: O=C1NC(=O)C(c2nn(CCCN3CCOCC3)c3ccccc23)=C1c1cn(-c2ccc3ccccc3c2)c2ccccc12
II: CN(C)CCCn1nc(C2=C(c3cn(-c4cnc5ccccc5c4)c4ccccc34)C(=O)NC2=O)c2ccccc21
Query: When I and II are compared, which has the higher number for pIC50? To answer, give the label that identifies your chosen option.
Response: II
(II: 7.70, I: 7.14)
